Tested on: Vero E6 infected with SARS-CoV-2
Assay: inhibition of SARS-CoV-2 cytopathic effect; higher = more antiviral protection, active = above 15
Conditions: 10000 nM; 48 h
measuredAttribute: inhibition of SARS-CoV-2 cytopathic effect (%)
Field: numeric (%). Do not append units.

# count of solved cases: 5
| molecule | studySystem | recordedMeasurement |
| --- | --- | --- |
| CC(=O)N1CCN(CCOc2ccc(C3CCN(C4=Nn5c(nnc5C(F)(F)F)CC4)CC3)cc2)CC1 | Vero E6 infected with SARS-CoV-2 | 1.88 |
| OCc1cc([C@@H](O)CNCCCCCCOCCOCc2c(Cl)cccc2Cl)ccc1O | Vero E6 infected with SARS-CoV-2 | -2.68 |
| O=C1CNC(=O)CN1 | Vero E6 infected with SARS-CoV-2 | -2.4 |
| COc1cccc(-c2ccc(NC(=O)C3=C(C(=O)O)CCC3)c(F)c2)c1 | Vero E6 infected with SARS-CoV-2 | 4.97 |
| COc1ccc(OC)c2c(=S)c3ccccc3[nH]c12 | Vero E6 infected with SARS-CoV-2 | 2.75 |

Short answer for "COc1ccc(N(C(=O)Oc2c(C)cccc2C)c2ccnc(Nc3ccc(N4CCN(C)CC4)cc3)n2)c(OC)c1" : inhibition of SARS-CoV-2 cytopathic effect was -1.27

Short answer for N[C@@H](Cc1c[nH]c2ccc(O)cc12)C(=O)O [5-hydroxytryptophan] : inhibition of SARS-CoV-2 cytopathic effect was 2.55

Short answer for "CO/N=C(\C(=O)N[C@@H]1C(=O)N2C(C(=O)O)=C(CSc3nc(=O)c(O)nn3C)CS[C@H]12)c1csc(N)n1" : inhibition of SARS-CoV-2 cytopathic effect was 2.56

Short answer for "N#Cc1ccc(N2N=C3c4ccc(C(=O)O)cc4CC[C@@H]3[C@@H]2C2CCCC2)cc1Cl" : inhibition of SARS-CoV-2 cytopathic effect was 10.2

Short answer for "c1ccc2c(-c3cnn4cc(-c5ccc(N6CCNCC6)cc5)cnc34)ccnc2c1" : inhibition of SARS-CoV-2 cytopathic effect was -26.3
